Please respond with reported MIC for every item in the list.
tested on: Staphylococcus epidermidis; experiment: Antimicrobial activity against methicillin-resistant Staphylococcus epidermidis ATCC 700296 assessed as bacterial growth inhibitions by CLSI protocol based microdilution method; type: functional
Give bare numbers, in mg/L.

Some molecules with recorded MIC:
O=C(O)c1ccc(-n2cc(CNc3ccc(Cl)c(Cl)c3F)c(-c3ccc(C(F)(F)F)cc3)n2)cc1	0.78
NS(=O)(=O)c1ccc(NCc2cn(-c3ccc(C(=O)O)cc3)nc2-c2ccc(C(F)(F)F)cc2)cc1	50
O=C(O)c1ccc(-n2cc(CNc3ccc(F)c(F)c3F)c(-c3ccc(C(F)(F)F)cc3)n2)cc1	3.12

Qu. Consider the molecule Cc1ccc(NCc2cn(-c3ccc(C(=O)O)cc3)nc2-c2ccc(C(F)(F)F)cc2)cc1Cl . State its measured MIC.
Ans. 1.56
